# system.tested: hSK2 (Homo sapiens, UniProt Q9H2S1)
# assay.info: Assay for compound activity towards hSK channels (86Rb+ efflux)
# cond: 86Rb+ efflux stimulated with calcium ionophore; drug 0.01 to 30 μM in EBSS; read-out: hSK2 Inhibitory Activity
measure: IC50

input_smiles=Cc1cccc(-c2nccc(Nc3ccccn3)n2)n1 observed="1000 to 5000 nM"
input_smiles=COc1cnc(-c2ccccn2)nc1Nc1ccc(-c2cccs2)cn1 observed="< 100 nM"
input_smiles=COc1cnc(-c2ccccn2)nc1Nc1ccc(N2CCCC2=O)cn1 observed="< 100 nM"
input_smiles=COc1cnc(-c2ccccn2)nc1Nc1ccc(-c2ccsc2)cn1 observed="< 100 nM"

What value of IC50 has been recorded for this entry: `COc1cnc(-c2ccccn2)nc1Nc1ccc(Cl)cn1`
100 to 1000 nM

What value of IC50 has been recorded for this entry: `COc1cnc(-c2ccccn2)nc1Nc1ccc(N2CCN(C)CC2)cn1`
100 to 1000 nM

What value of IC50 has been recorded for this entry: `FC(F)(F)c1ccc(Nc2cc(-c3ccccn3)nc(-c3ccccn3)n2)nc1`
5000 to 30000 nM

====

Entries and their IC50
# system.tested: hSK2 (Homo sapiens, UniProt Q9H2S1)
# assay.info: Assay for compound activity towards hSK channels (86Rb+ efflux)
# Format: cell-based
# cond: 86Rb+ efflux stimulated with calcium ionophore; drug 0.01 to 30 μM in EBSS; read-out: hSK2 Inhibitory Activity
# Protocol: 20.1 Assay for Compound Activity Towards hSK Channels Cells expressing small conductance, calcium activated potassium channels, such as SK-like channels were loaded with ^86Rb^+ by culture in media containing ^86RbCl. […] After a suitable efflux period, the EBSS/ionophore solution was removed from the cells and the ^86Rb^+ content was determined by Cherenkov counting (Wallac Trilux). Cells were then lysed with a SDS solution and the ^86Rb^+ content of the lysate was determined. […]

Take a look at these entries with their results.
compound=FC(F)(F)c1ccc(Nc2nccc(-c3ccccn3)n2)nc1 system_tested="hSK2 (Homo sapiens, UniProt Q9H2S1)" observed="5 to 30 µM"
compound=COc1cnc(-c2ccccn2)nc1Nc1ccc(N)cn1 system_tested="hSK2 (Homo sapiens, UniProt Q9H2S1)" observed="< 0.1 µM"
compound=CN(c1ccccn1)c1nccc(-c2ccccn2)n1 system_tested="hSK2 (Homo sapiens, UniProt Q9H2S1)" observed="5 to 30 µM"
compound=Clc1ccc(Nc2ccnc(-c3ccccn3)n2)nc1 system_tested="hSK2 (Homo sapiens, UniProt Q9H2S1)" observed="1 to 5 µM"
compound=Clc1ccc(Nc2nccc(-c3ccccn3)n2)nc1 system_tested="hSK2 (Homo sapiens, UniProt Q9H2S1)" observed="0.1 to 1 µM"

Missing value: IC50, hSK2 (Homo sapiens, UniProt Q9H2S1), entry `COc1cnc(-c2ccccn2)nc1Nc1ccc(F)cn1` . Fill in?
0.1 to 1 µM

Missing value: IC50, hSK2 (Homo sapiens, UniProt Q9H2S1), entry `COc1cnc(-c2ccccn2)nc1Nc1ccc(N2CCC(C)CC2)cn1` . Fill in?
< 0.1 µM

Missing value: IC50, hSK2 (Homo sapiens, UniProt Q9H2S1), entry `COc1cnc(-c2ccccn2)nc1Nc1cc(C)ccn1` . Fill in?
< 0.1 µM

Missing value: IC50, hSK2 (Homo sapiens, UniProt Q9H2S1), entry `COc1cnc(-c2ccccn2)nc1Nc1ccc(N(C)C)cn1` . Fill in?
0.1 to 1 µM

Missing value: IC50, hSK2 (Homo sapiens, UniProt Q9H2S1), entry `COc1cnc(-c2ccccn2)nc1Nc1ccc(-c2ccccc2)cn1` . Fill in?
0.1 to 1 µM

Missing value: IC50, hSK2 (Homo sapiens, UniProt Q9H2S1), entry Clc1cc(-c2ccccn2)nc(-c2ccccn2)n1 [4-Chloro-2,6-di-pyridin-2-yl-pyrimidine] . Fill in?
1 to 5 µM
